- experimentalDetails: in vitro
- Set-up: Viability of infected HeLa host cells, resazurin conversion, bulk resorufin fluorescence relative to DMSO
- runConditions: human, hela cells; bulk resorufin, mean of 2
Recorded measurements of viability at 28.5 h, 10 µM, one per entry
Write the value in % as a bare number.

Cc1cc(NS(=O)(=O)c2ccc(Nc3nc(-c4cccs4)cs3)cc2)no1 = 88.4
Cc1ccc(NC(=O)N(Cc2ccc(-c3ccccc3)cc2)CC(C)(C)CN)c(C)c1 [CBK002428C] = 86.4
O=C(OCCC1SC(NC2CC3C=CC2C3)=NC1=O)c1ccc(Cl)c([N+](=O)[O-])c1 (stereo not shown) [CBK200060T] = 88.4

We now examine a further molecule.
(Q) Bench note: what viability at 28.5 h, 10 µM did Cc1ccc(NC(=O)n2ccc3c(N4CCNCC4)cccc32)cc1[N+](=O)[O-] [CBK003747C] show?
(A) 76.7
